Hello, the source for this data is patent US20260151494A1, in case you need it.

molecular target: T1, apical domain of human CD71 (human, UniProt P02786 189-383, limits assumed); test: primary ELISA; also: test concentration or dose not given here
T1 construct: domain: apical domain; Screen 4 panned on human apical domains, the ELISA text says only 'apical domain'
T1 sequence (P02786 189-383 limits assumed): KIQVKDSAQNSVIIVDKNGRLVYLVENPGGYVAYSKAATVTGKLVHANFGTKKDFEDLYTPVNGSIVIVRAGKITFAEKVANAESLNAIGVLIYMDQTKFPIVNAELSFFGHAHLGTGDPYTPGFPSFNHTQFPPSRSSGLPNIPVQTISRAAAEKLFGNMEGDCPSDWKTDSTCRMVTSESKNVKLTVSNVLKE
property_label: RLU (RLU)

| binder | property_label | reported_measurement |
| --- | --- | --- |
| CD71-binding FN3 domain of SEQ ID NO: 450 (designed binder) MLPAPKNLVVSRVTEDSARLSWTAPDAAFDSFFIGYLEPQPPGEAISLFVPGSERSYDLTGLKPGTEYNVTIQGVKGGFPSEPLAAKFTT | RLU | 6.26e+06 |
| CD71-binding FN3 domain of SEQ ID NO: 447 (designed binder) MLPAPKNLVVSRVTEDSARLSWTAPDAAFDSFFIGYLEPQPPGEAIYLYVPGSERSYDLTGLKPGTEYNVTIQGVKGGFPSYPLTAQFTT | RLU | 5.25e+06 |
| CD71-binding FN3 domain of SEQ ID NO: 504 (designed binder) MLPAPKNLVVSRVTEDSARLSWTAPDAAFDSFFIGYLEPQPPGEAIGLVVPGSERSYDLTGLKPGTEYNVTIQGVKGGFPSHPLGAIFTT | RLU | 2.68e+06 |
| CD71-binding FN3 domain of SEQ ID NO: 473 (designed binder) MLPAPKNLVVSRVTEDSARLSWTAPDAAFDSFFIGYLEPQPPGEAIDLWVPGSERSYDLTGLKPGTEYNVTIQGVKGGFPSLPLSASFTT | RLU | 3.03e+06 |

I. CD71-binding FN3 domain of SEQ ID NO: 537 (designed binder) MLPAPKNLVVSRVTEDSARLSWTAPDAAFDSFEIGYFENLYLGEAIVLTVPGSERSYDLTGLKPGTEYWVQIGGVKGGNWSAPLSAIFTT
II. CD71-binding FN3 domain of SEQ ID NO: 508 (designed binder) MLPAPKNLVVSRVTEDSARLSWTAPDAAFDSFFIGYLEPQPPGEAITLSVPGSERSYDLTGLKPGTEYNVTIQGVKGGFPSEPLIAIFTT
Query: Compare reported RLU values for I and II . Which is lower? Your answer should be the label attached to the chosen record.
Reply: II
